target: Growth hormone secretagogue receptor type 1 (Homo sapiens, UniProt Q92847); note: assay procedure not described here
Sequence (Q92847 whole entry): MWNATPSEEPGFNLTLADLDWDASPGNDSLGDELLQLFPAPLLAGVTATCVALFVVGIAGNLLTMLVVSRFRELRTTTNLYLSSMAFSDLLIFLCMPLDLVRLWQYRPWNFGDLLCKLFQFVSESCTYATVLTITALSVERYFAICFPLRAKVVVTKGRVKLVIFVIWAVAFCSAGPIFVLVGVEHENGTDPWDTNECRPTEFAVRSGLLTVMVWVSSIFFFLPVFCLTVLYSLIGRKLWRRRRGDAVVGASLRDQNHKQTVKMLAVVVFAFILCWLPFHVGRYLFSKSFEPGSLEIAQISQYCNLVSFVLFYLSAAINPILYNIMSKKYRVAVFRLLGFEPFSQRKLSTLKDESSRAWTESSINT
Readout name: AC50

Compound	AC50
C#CC1(OC(N)=O)CCCCC1 [ETHINAMATE]	> 10 µM
O=C(O)c1cc(-c2ccc(F)cc2F)ccc1O [DIFLUNISAL]	> 10 µM
N[C@@H](C(=O)N[C@@H]1C(=O)N2C(C(=O)O)=C(Cl)CS[C@H]12)c1ccccc1 [CEFACLOR ANHYDROUS]	> 30 µM

Provide only the value of recorded AC50 for CC(=O)N(CC(O)CO)c1c(I)c(C(=O)NCC(O)CO)c(I)c(C(=O)NCC(O)CO)c1I (configuration not stated) [IOHEXOL]
> 30 µM

Provide only the value of recorded AC50 for CN(C/C=C/c1ccccc1)Cc1cccc2ccccc12 [NAFTIFINE]
> 30 µM
